molecular target: Sodium-dependent noradrenaline transporter (Homo sapiens, UniProt P23975)
Sequence (P23975 whole entry): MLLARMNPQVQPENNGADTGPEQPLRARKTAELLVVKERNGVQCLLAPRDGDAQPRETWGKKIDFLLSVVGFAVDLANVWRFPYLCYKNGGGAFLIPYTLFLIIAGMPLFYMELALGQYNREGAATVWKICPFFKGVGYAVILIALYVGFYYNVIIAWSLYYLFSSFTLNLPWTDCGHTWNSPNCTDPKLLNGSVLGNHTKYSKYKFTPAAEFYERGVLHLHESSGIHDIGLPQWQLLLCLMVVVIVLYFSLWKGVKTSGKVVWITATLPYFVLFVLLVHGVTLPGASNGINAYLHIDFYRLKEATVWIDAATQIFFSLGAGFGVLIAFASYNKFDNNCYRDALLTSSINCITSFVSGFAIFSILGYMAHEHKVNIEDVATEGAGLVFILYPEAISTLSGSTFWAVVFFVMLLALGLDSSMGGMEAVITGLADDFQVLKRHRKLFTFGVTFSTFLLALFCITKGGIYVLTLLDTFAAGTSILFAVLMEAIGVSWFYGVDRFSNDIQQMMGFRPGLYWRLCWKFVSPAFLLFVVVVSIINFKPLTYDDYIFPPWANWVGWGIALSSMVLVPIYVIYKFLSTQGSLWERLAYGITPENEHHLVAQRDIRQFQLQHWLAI
PROPERTY LABEL: IC50 (nM)
Provide the reading as a plain figure in nM.

input: Determine from records and report IC50 for CN(C)C1CC=C(c2c[nH]c3ccc(N=C(N)c4cccs4)cc23)CC1 (stereo unspecified)
output: 550

Entry source: BindingDB's records for doi:10.1021/jm300138g
